Overview of reported Kd across a group of binders:
biological target: T1, type II collagen gelatin; assay: ELISA-type plate binding assay, biotinylated protein on gelatin-coated plate
T1 construct: Denatured collagen, coated on plates (ELISA-type assay, cell adhesion) or added in solution (NMR); also called type II gelatin; collagen type II gelatin
Where no end group is shown, it is not given here.
assay_readout: Kd (nM)

binder="peptide 333 comprising three modules corresponding to module 3 of the CBD of MMP-2 (designed binder) EGQVVSTVYGNSEGAPCVFPFTFLGNKYESCTSAGRSDGFLWCATTANYDDDRKWGFCPHEALFTMGGNSEGAPCVFPFTFLGNKYESCTSAGRSDGKRWCATTANYDDDRKWGFCPETAMSTVGGNSEGAPCVFPFTFLGNKYESCTSAGRSDGKMWCATTANYDDDRKWGFCPDQGYSL" assay_readout=Kd unit_of_measure=nM assay_result=117
binder="peptide 222 comprising three modules corresponding to module 2 of the CBD of MMP-2 (designed binder, Expressed in Shuffle cells with a His6-SUMO tag that was cleaved off) EGQVVFTMYGNAEGQPCKFPFRFQGTSYDSCTTEGRTDGYRWCGTTEDYDRDKKYGFCPHEALFTMGGNAEGQPCKFPFRFQGTSYDSCTTEGRTDGYRWCGTTEDYDRDKKYGFCPETALFTMGGNAEGQPCKFPFRFQGTSYDSCTTEGRTDGYRWCGTTEDYDRDKKYGFCPDQGYSL" assay_readout=Kd unit_of_measure=nM assay_result=1.46
binder="SEGAPCVFPFTFLGNKYESCTSAGRSDGKMWCATTANYDDDRKWGFCPD (other, cysteine pairing not given here; also: biotinylated for plate binding assay, also called M3) [module 3 of the CBD of MMP-2]" assay_readout=Kd unit_of_measure=nM assay_result=12000
binder="collagen binding domain (CBD) of gelatinase A (MMP-2) (other, Expressed in Shuffle T7 E. coli with a His6-SUMO tag that was cleaved off; also called CBD of MMP-2; Full length CBD) ADGEYCKFPFLFNGKEYNSCTDTGRSDGFLWCSTTYNFEKDGKYGFCPHEALFTMGGNAEGQPCKFPFRFQGTSYDSCTTEGRTDGYRWCGTTEDYDRDKKYGFCPETAMSTVGGNSEGAPCVFPFTFLGNKYESCTSAGRSDGKMWCATTANYDDDRKWGFCPD" assay_readout=Kd unit_of_measure=nM assay_result=20.4
binder="AEGQPCKFPFRFQGTSYDSCTTEGRTDGYRWCGTTEDYDRDKKYGFCPE (other, cysteine pairing not given here; also: biotinylated for plate binding assay, also called M2) [module 2 of the CBD of MMP-2]" assay_readout=Kd unit_of_measure=nM assay_result=4260
